assay target: human HDAC8 (Homo sapiens, UniProt Q9BY41)
Construct: purchased BPS Bioscience 50008
Sequence (Q9BY41 whole entry): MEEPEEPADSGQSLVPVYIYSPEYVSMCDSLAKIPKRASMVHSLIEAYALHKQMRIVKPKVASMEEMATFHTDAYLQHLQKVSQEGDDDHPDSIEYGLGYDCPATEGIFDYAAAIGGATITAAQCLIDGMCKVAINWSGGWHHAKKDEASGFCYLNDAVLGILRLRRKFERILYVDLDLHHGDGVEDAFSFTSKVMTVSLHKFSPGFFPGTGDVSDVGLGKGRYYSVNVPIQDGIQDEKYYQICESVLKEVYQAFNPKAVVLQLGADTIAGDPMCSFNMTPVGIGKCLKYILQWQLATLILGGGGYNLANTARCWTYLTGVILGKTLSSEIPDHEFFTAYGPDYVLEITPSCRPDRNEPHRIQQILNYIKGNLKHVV
assay protocol: HDAC8 inhibitor enzymatic assay, % inhibition at fixed concentration
Type: biochemical
particulars: read-out: %inhibition of HDACs at 10µM of test compound HDAC8; 10 µM compound
parameter: inhibition at 10 µM (%)

Below are worked cases with known answers.
>>> print(df.to_string())
                                   compound            parameter  value_units  endpoint_value
0          O=C(CSc1nc2ccccc2n1CCC1CCCCC1)NO  inhibition at 10 µM            %               1
1  O=C(CCCSc1nc2ccccc2n1Cc1ccccc1)NO [Compound 10a]  inhibition at 10 µM            %              56
2  O=C(CCCSc1nc2ccccc2n1CC1CCCCC1)NO [Compound 10c]  inhibition at 10 µM            %              12
3       O=C(CSc1nc2ccccc2n1Cc1ccc(Br)cc1)NO  inhibition at 10 µM            %              12
4           O=C(CSc1nc2ccccc2n1CC1CCCCC1)NO  inhibition at 10 µM            %              14

P: O=C(CCCSc1nc2ccccc2n1Cc1ccc(Br)cc1)NO [Compound 10b]
Q: O=C(CCCSc1nc2ccccc2n1CCC1CCCCC1)NO [Compound 10d]
**Q:** Kindly identify the item with the lower inhibition at 10 µM figure among these two: P and Q Please respond with the label that marks your chosen entry.
**A:** P

###

assay target: human HDAC2 (Homo sapiens)
Construct: purchased BPS Bioscience 50002
assay protocol: HDAC2 inhibitor enzymatic assay, % inhibition at fixed concentration
Assay type: biochemical
particulars: read-out: %inhibition of HDACs at 10µM of test compound HDAC2; 10 µM compound; mean of two replicates
parameter: inhibition at 10 µM (%)

Solved cases (3 shown):
In [3]: df
Out[3]:
                                   compound  endpoint_value
0  O=C(CCCSc1nc2ccccc2n1CCC1CCCCC1)NO [Compound 10d]               8
1       O=C(CSc1nc2ccccc2n1Cc1ccc(Br)cc1)NO               6
2           O=C(CSc1nc2ccccc2n1CC1CCCCC1)NO               7

A: O=C(CCCSc1nc2ccccc2n1CC1CCCCC1)NO [Compound 10c]
B: O=C(CSc1nc2ccccc2n1Cc1ccccc1)NO
**Q:** Of A and B , whose reported inhibition at 10 µM is numerically smaller? Your choice should be expressed through its label.
**A:** B
(B: 5%, A: 8%)

###

assay target: human HDAC6 (Homo sapiens)
Sequence (Q9UBN7 whole entry): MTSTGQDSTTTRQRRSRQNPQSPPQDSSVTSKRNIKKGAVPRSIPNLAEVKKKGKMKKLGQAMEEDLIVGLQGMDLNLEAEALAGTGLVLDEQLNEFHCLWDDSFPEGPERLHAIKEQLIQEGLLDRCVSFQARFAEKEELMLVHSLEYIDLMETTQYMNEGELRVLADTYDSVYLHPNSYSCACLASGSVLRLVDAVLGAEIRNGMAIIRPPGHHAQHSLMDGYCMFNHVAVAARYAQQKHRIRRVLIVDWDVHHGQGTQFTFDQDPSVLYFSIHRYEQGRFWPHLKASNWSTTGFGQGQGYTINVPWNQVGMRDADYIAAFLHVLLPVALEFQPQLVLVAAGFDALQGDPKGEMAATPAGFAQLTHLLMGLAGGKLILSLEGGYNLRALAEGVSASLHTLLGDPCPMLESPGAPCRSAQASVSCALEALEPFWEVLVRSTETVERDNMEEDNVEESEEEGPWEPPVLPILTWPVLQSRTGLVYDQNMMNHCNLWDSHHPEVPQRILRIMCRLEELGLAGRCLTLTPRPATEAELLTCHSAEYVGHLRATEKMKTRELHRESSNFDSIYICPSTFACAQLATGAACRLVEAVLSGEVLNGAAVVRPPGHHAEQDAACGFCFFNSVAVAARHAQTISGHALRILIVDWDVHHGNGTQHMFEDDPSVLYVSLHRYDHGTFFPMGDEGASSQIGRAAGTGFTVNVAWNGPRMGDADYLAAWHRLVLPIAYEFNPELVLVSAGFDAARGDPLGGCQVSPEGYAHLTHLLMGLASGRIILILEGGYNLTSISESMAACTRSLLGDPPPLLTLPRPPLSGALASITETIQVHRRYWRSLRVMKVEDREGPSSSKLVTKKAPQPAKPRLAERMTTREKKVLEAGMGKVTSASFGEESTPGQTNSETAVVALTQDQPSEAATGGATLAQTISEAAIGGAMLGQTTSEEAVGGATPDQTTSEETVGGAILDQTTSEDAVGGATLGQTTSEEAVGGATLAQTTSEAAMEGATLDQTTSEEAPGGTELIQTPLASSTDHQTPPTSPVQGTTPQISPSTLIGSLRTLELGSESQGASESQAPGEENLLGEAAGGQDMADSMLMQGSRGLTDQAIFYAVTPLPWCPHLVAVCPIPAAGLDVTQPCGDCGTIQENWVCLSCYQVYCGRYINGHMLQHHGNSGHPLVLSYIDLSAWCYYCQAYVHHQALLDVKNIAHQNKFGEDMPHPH
assay protocol: HDAC6 inhibitor enzymatic assay, % inhibition at fixed concentration
particulars: read-out: %inhibition of HDACs at 10µM of test compound HDAC6
parameter: inhibition at 10 µM (%)

                           compound                assay_target  endpoint_value
0  O=C(CSc1nc2ccccc2n1CCC1CCCCC1)NO  human HDAC6 (Homo sapiens)               2
1   O=C(CSc1nc2ccccc2n1Cc1ccccc1)NO  human HDAC6 (Homo sapiens)               2

1: O=C(CCCSc1nc2ccccc2n1CCC1CCCCC1)NO [Compound 10d]
2: O=C(CCCSc1nc2ccccc2n1CC1CCCCC1)NO [Compound 10c]
3: O=C(CCCSc1nc2ccccc2n1Cc1ccccc1)NO [Compound 10a]
**Q:** // sort entries: inhibition at 10 µM, high to low Return value: ordered labels per request.
**A:** 3, 1, 2

###

assay target: human HDAC6 (Homo sapiens)
assay protocol: HDAC6 inhibitor enzymatic assay, % inhibition at fixed concentration
particulars: read-out: %inhibition of HDACs at 10µM of test compound HDAC6
parameter: inhibition at 10 µM (%)

>>> print(df.to_string())
                          compound                assay_target  endpoint_value
0  O=C(CSc1nc2ccccc2n1CC1CCCCC1)NO  human HDAC6 (Homo sapiens)               2

a: O=C(CSc1nc2ccccc2n1Cc1ccc(Br)cc1)NO
b: O=C(CCCSc1nc2ccccc2n1Cc1ccc(Br)cc1)NO [Compound 10b]
**Q:** For a and b , which recorded inhibition at 10 µM is lower? Indicate which entry you chose by stating its label.
**A:** a
(a: 6%, b: 12%)

###

assay target: human HDAC2 (Homo sapiens, UniProt Q92769)
Construct: purchased BPS Bioscience 50002
Sequence (Q92769 whole entry): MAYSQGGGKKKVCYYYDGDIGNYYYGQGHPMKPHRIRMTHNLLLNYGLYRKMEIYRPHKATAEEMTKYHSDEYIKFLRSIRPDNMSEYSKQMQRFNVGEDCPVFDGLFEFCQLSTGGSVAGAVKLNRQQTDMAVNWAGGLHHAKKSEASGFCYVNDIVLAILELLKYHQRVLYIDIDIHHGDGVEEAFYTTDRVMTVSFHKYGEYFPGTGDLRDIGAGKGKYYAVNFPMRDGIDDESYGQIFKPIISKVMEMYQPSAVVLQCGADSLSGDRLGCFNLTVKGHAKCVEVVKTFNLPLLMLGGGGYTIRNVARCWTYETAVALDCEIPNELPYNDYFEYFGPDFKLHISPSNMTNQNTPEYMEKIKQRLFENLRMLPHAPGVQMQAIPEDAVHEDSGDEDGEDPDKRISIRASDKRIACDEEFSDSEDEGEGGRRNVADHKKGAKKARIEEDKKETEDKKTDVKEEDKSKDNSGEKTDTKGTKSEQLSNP
assay protocol: HDAC2 inhibitor enzymatic assay, % inhibition at fixed concentration
Assay type: biochemical
particulars: read-out: %inhibition of HDACs at 10µM of test compound HDAC2; 10 µM compound; mean of two replicates
parameter: inhibition at 10 µM (%)

1: O=C(CSc1nc2ccccc2n1CCC1CCCCC1)NO
2: O=C(CCCSc1nc2ccccc2n1Cc1ccc(Br)cc1)NO [Compound 10b]
3: O=C(CCCSc1nc2ccccc2n1Cc1ccccc1)NO [Compound 10a]
**Q:** Ranking criterion: inhibition at 10 µM, increasing numeric value. Items: as listed above. Answer by listing the labels in the requested order.
**A:** 1, 2, 3
(1: 3%, 2: 9%, 3: 19%)

###

assay target: human HDAC1 (Homo sapiens)
Construct: purchased BPS Bioscience 50051
Sequence (Q13547 whole entry): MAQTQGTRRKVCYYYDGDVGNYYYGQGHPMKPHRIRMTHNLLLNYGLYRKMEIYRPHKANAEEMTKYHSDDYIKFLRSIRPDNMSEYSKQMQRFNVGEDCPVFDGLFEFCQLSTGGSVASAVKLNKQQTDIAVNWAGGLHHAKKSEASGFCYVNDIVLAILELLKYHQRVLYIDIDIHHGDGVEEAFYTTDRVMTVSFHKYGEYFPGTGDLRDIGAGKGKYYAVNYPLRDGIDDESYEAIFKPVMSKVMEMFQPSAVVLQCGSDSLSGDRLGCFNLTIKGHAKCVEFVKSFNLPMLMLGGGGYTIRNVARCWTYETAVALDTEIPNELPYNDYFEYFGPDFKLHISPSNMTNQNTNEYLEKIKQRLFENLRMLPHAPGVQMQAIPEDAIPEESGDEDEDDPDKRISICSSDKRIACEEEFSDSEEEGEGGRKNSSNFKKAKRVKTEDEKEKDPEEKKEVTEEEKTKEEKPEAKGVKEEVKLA
assay protocol: HDAC1 inhibitor enzymatic assay, % inhibition at fixed concentration (BPS Bioscience, fluorogenic)
Assay type: biochemical
particulars: read-out: %inhibition of HDACs at 10µM of test compound HDAC1; 10 µM compound; mean of two replicates
parameter: inhibition at 10 µM (%)

Please review the following examples before continuing.
>>> df
                                   compound  endpoint_value
0  O=C(CCCSc1nc2ccccc2n1Cc1ccccc1)NO [Compound 10a]              36
1  O=C(CCCSc1nc2ccccc2n1CC1CCCCC1)NO [Compound 10c]               9
2           O=C(CSc1nc2ccccc2n1Cc1ccccc1)NO               6
3  O=C(CCCSc1nc2ccccc2n1CCC1CCCCC1)NO [Compound 10d]              11
4           O=C(CSc1nc2ccccc2n1CC1CCCCC1)NO              13
5       O=C(CSc1nc2ccccc2n1Cc1ccc(Br)cc1)NO              18

I: O=C(CSc1nc2ccccc2n1CCC1CCCCC1)NO
II: O=C(CCCSc1nc2ccccc2n1Cc1ccc(Br)cc1)NO [Compound 10b]
**Q:** // pick larger inhibition at 10 µM from pair: I vs II I would appreciate it if you answered with the label of your choice.
**A:** I
(I: 14%, II: 9%)

Sourced from paper PMC6522981
